- TARGET: T1, AAV8 (adeno-associated virus serotype 8)
- T1 construct: also called adeno-associated virus serotype 8
- PROCEDURE TEXT: SPR, AAV on CM5 chip
Measured Kd, listed per entry for reference.
All answers are understood in nM, so give the number only.

Problem: Consider the binder A4-H1 (VHH) VHH: VQLVESGGGLVQPGGSLRLSCAASGRSFSINTMGWFRQAPGKGLEAVAIVTRGGSTYYADSVKGRFTISRDNSKNTLYLQMNSLRAEDTAVYYCHIDEVRQSSWTTSNIWGQGTLVTVSS and give its measured Kd.
Solution: 6.82

Problem: Could you do the same for A4-H3 (VHH) VHH: VQLQASGGGFVQPGGSLRLSCAASGSIFSINLMGWFRQAPGKERELVAVITPGGNTYYADSVKGRFTISRDNSKNTVYLQMNSLRAEDTATYYCHVDEVRQSSWTTSNLWGQGTQVTVSS , please?
Solution: 9.59

Problem: Can you handle A4-H5 (VHH) VHH: VQLQASGGGFVQPGGSLRLSCAASGRGFSINTMGWFRQAPGKERELVAVVTRGGTTYYADSVKGRFTISRDNSKNTVYLQMNSLRAEDTAVYYCHVDEVRQSSWTTSNLWGQGTQVTVSS next?
Solution: 302

Problem: Lookup A4-H6 (VHH) VHH: VQLVESGGGLVQPGGSLRLSCAASGRGFSINTMGWFRQAPGKGRELVAIVTRGGTTYYADSVKGRFTISRDNSKNTVYLQMNSLRAEDTAVYYCHVDEVRQSSWTTSNLWGQGTLVTVSS
Solution: 344
